Some compounds, each annotated with its measured pest or weed control at 125 g/ha.
- System: barnyardgrass (Echinochloa crus-galli)
- PROTOCOL_DETAILS: Test A preemergence
- Type: in vivo
- CONDITION_LABEL: Echinochloa crus-galli, pre-emergence, 240 h, 125 g ai/ha, preemergence; 0 to 100 scale where 0 is no effect and 100 is complete control; read-out: Barnyardgrass plant response rating
- Source text: […]

{"COMPOUND": "COc1c(F)ccc([C@H]2CN(C)C(=O)[C@@H]2C(=O)Nc2ccccc2F)c1Cl", "RESULT_UNITS": "%", "pest or weed control at 125 g/ha": 100}
{"COMPOUND": "O=C1NC[C@H](c2cc(F)c(C(F)(F)F)c(F)c2)[C@H]1C(=O)Nc1ccccc1F", "RESULT_UNITS": "%", "pest or weed control at 125 g/ha": 90}
{"COMPOUND": "Cc1c(F)ccc([C@H]2CNC(=O)[C@@H]2C(=O)Nc2ccccc2C(F)(F)F)c1F", "RESULT_UNITS": "%", "pest or weed control at 125 g/ha": 50}
{"COMPOUND": "COc1cccc(C2CN(C)C(=O)C2C(=O)Nc2cccc(F)c2F)c1 (stereo not shown)", "RESULT_UNITS": "%", "pest or weed control at 125 g/ha": 90}
{"COMPOUND": "O=C1NC[C@H](c2cccc(C(F)(F)F)c2)[C@H]1C(=O)Nc1cccc2c1OC(F)(F)O2", "RESULT_UNITS": "%", "pest or weed control at 125 g/ha": 90}
{"COMPOUND": "CSc1ccccc1NC(=O)[C@H]1C(=O)N(C)C[C@@H]1c1cc(C)cc(F)c1", "RESULT_UNITS": "%", "pest or weed control at 125 g/ha": 90}
{"COMPOUND": "O=C(Nc1cccc(Cl)c1F)[C@H]1C(=O)N(C2CC2)CC[C@@H]1c1cccc(C(F)(F)F)c1", "RESULT_UNITS": "%", "pest or weed control at 125 g/ha": 30}
